Test: qHTS of pediatric cancer cell lines to identify multiple opportunities for drug repurposing: Primary screen for SK-N-MC cells (AID 1347093)
Conditions: SK-N-MC viability, CellTiter-Glo luminescence, 48 h; series mostly up to 46 µM
Records with an inconclusive call do not appear. The source made the active and inactive calls. Calls follow the shape of the dose curve; as a rule, active = well fitted cell-killing curve with a large enough effect; inconclusive = small, poorly fitted or top-dose-only effect; inactive = no such curve, though single readings can be large or run the other way.
Hello, when you answer, please use one of the following outcomes: active, inactive

# outcome recorded in this test, key = `Cc1cc(SCc2sc(-c3ccc(C(F)(F)F)cc3)nc2C)ccc1OCC(=O)O`
active

# outcome recorded in this test, key = `COc1ccc(-c2ccc3c(N4CCOC[C@H]4C)nc(N4CCOC[C@H]4C)nc3n2)cc1CO`
active

# outcome recorded in this test, key = `O=C(O)[C@@H](c1ccc(OCc2ccc3ccccc3n2)cc1)C1CCCC1`
inactive

# outcome recorded in this test, key = `Clc1cccc(Cl)c1NC1=NCCN1`
inactive

# outcome recorded in this test, key = `Cc1cc2c(F)c(Oc3ncnn4cc(OC[C@@H](C)O)c(C)c34)ccc2[nH]1`
active

# outcome recorded in this test, key = `Cc1ccc(-n2nc(C(C)(C)C)cc2NC(=O)Nc2ccc(OCCN3CCOCC3)c3ccccc23)cc1`
active
